tested on: SK-MEL-28 melanoma; assay: NCI-60 one-dose screen, 48 h (100 = growth as untreated, 0 = no growth, -100 = all killed); settings: 10 µM
This is part of a sample that, as a whole, favours compounds with a hit. Of some 83,000 tested, about 20% had one in any assay.
measure-name: growth (%)
Reply with just the number (in %).

Nc1nc(-c2ccccc2Br)nn1-c1nc2ccccc2s1
103
Cc1c(-c2noc(-c3ccc([N+](=O)[O-])cc3)n2)no[n+]1[O-]
108
O=C(c1nc2ccccc2[nH]1)C1C(c2ccc(F)cc2)C2CC3CCCCC3N2[C@@]12C(=O)Nc1ccc(Cl)cc12 (stereo not given in full)
61
O=c1c2cccc(F)c2sc2c(N3CCNCC3)nc3ccccc3c12
69.1

Then there is this compound:
Consider CCN1C(=O)N(CC)C2Nn3c(s/c(=C4\C(=O)N(C(C)C)c5ccccc54)c3=O)=NC21 (stereo not given) . Its measured growth is 55.1

---

Catalogue of growth values
tested on: T-47D breast; experiment: NCI-60 one-dose screen, 48 h (100 = growth as untreated, 0 = no growth, -100 = all killed); conditions: 10 µM unless noted
The panel holds about 83,000 compounds, 20% with a hit somewhere; the sample as a whole holds those more often. Activity calls are given as the source filed them. How the source made its calls: active means growth percent below 10; inactive means the rest.

Guide cases for growth, answers given:
O=C(Nc1ccc(F)c(Cl)c1)Nc1ccc(Cl)c(Cl)c1
85.5% (inactive)
COc1ccc(C2=Nn3c(NN)nnc3SC2)cc1
96.1% (inactive)
COc1cc2nc(-c3cnc(N(C)C)nc3)nc(NC3CCN(Cc4ccccc4)CC3)c2cc1OC
-46.6% (active)
COc1ccc(C2Nc3ncnc(N)c3N=C3c4ccccc4C(=O)C32)cc1 (stereo not given)
80.8% (inactive)

// Cc1cccc2c(=O)c3c(sc12)c(NCCCNCCO)nc1ccccc13 : growth value = 62.7% (inactive)

Memo: CCOC(=O)c1cc2c(n1Cc1ccccc1)-c1oncc1CCC2 , reported growth: 80.7% (inactive)

---

tested on: HT29 colon; test: NCI-60 one-dose screen, 48 h (100 = growth as untreated, 0 = no growth, -100 = all killed); conditions: 10 µM unless noted
About 83,000 compounds went through this panel and 20% of them were active in at least one assay; those are over-represented in the sample as a whole.
Quick rule for you: growth under 20% gets 1 (yes), anything else gets 0 (no).

O=C(NC1C(O)OC(CO)C(O)C1O)NS(=O)(=O)c1ccc(Cl)cc1 (configuration not stated)
0 (no)
O=C(Nc1ccc(Cl)cc1)c1cc2ccccc2cc1OP(=O)(O)O
0 (no)
CN1CCN(Cc2ccc(NC(=O)c3cncc(C#Cc4nc(N)nc5[nH]ncc45)c3)cc2C(F)(F)F)CC1
0 (no)
COc1cc(C2CC(c3ccc(Nc4nc(NCCO)nc(N5CCOCC5)n4)cc3)=NN2c2cc(Cl)cc(Cl)c2)cc(OC)c1OC (configuration not stated)
0 (no)
CCOC(=O)c1cnc2ccc(Cl)cc2c1NCCCN(C)C
0 (no)
Cn1cc([C@@H]2Nc3ccc4[nH]ncc4c3[C@H]3[C@H]4CCC(C4)[C@H]32)c(C(F)(F)F)n1
1 (yes)
Oc1[nH]c2ccccc2c1N=Nc1nnc2n1N=C(c1ccccc1)CS2
0 (no)
NCCOc1ncccc1/C=C1\c2ccccc2-c2ccc([N+](=O)[O-])cc21
1 (yes)

Qu. For this compound, is growth lower than 20%? NC1C(N)C(N)C1N (configuration not stated)
Ans. 0 (no)

Qu. Given the entry O=C(Nc1ccc(Cl)cc1F)c1cc(I)ccc1O , would its reported growth be below 20%?
Ans. 0 (no)

Qu. Please let me know if CCN(CCO)CCNc1ccc(C)c2sc3cc(Cl)ccc3c(=O)c12 shows growth below 20%.
Ans. 1 (yes)

Qu. # check: growth < 20% for CCCCc1c(CCC)c(=N)c2ccccc2n1C
Ans. 0 (no)

Qu. Item O=c1c2cc(F)ccc2sc2c(NCCN3CCCC3)nc3ccccc3c12 : growth beneath 20%, strictly?
Ans. 1 (yes)

Qu. Quick check: growth of CCOc1cc(Cl)c(C(C)NC(=O)c2cccc(OC)c2)cc1OCC (configuration not stated) under 20%?
Ans. 1 (yes)

Qu. Record O=C(Cn1cc(COc2ncnc3c2cnn3-c2ccccc2)nn1)Nc1ccccn1 : is its growth strictly below 20%?
Ans. 0 (no)

Qu. Here's an entry: COc1c(B(O)O)cccc1-c1nc2ccc3n[nH]c(F)c3c2c2c1CCCC2 . Is its growth below 20%?
Ans. 0 (no)

Qu. Regarding COc1cc(-c2c3c(c(Br)n2Cc2ccccc2)-c2nc(N)sc2CC3)cc(OC)c1OC , kindly confirm whether its growth is beneath 20%.
Ans. 0 (no)

Qu. I'd appreciate it if you could check whether CCCSC1=NC2C(N(CC)C(=O)N2CC)N1/N=C/C=C/c1ccccc1[N+](=O)[O-] (configuration not stated) has growth smaller than 20%.
Ans. 1 (yes)

Qu. Please let me know if Cc1ccc(OCCCCCCNCCO)c(C)c1 shows growth below 20%.
Ans. 0 (no)

Qu. Input CC1=C(C(=O)OCC2CCN(C(=O)OC(C)(C)C)CC2)[C@@H](c2cccc(C#N)c2)C2=C(CC(C)(C)CC2=O)N1 ; condition: growth strictly below 20%. Does it hold?
Ans. 1 (yes)

Qu. Determine whether this compound shows growth lower than 20% (ties excluded): COc1ccc(N(C)c2nc(N)nc3sc4c(c23)CCCC4)cc1
Ans. 1 (yes)
